tested on: 616215-338-R-J1-PDC complex spheroid growth, % test/control; assay: Anticancer human tumor 616215-338-R-J1-PDC patient-derived colon adenocarcinoma cell line growth inhibition [Asc]; conditions: second compound 1 µM; first compound 0.01 µM; active compounds read low;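 also: spheroids exposed to agents for seven days before readout; 100% = DMSO vehicle control viability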
measured attribute: viability, T/C

input: Provide the documented viability, T/C with 616215-338-R-J1-PDC complex spheroid growth, % test/control as the system for Cn1ncnc1[C@H]1c2n[nH]c(=O)c3cc(F)cc(c23)N[C@@H]1c1ccc(F)cc1 + CNC(C)C(=O)NC1CN(S(=O)(=O)c2cccc(S(=O)(=O)N3CCC4CCC(C(=O)NC(c5ccccc5)c5ccccc5)N4C(=O)C(NC(=O)C(C)NC)C3)c2)CCC2CCC(C(=O)NC(c3ccccc3)c3ccccc3)N2C1=O
output: 99.2%

input: Now consider CCN1CCN(Cc2ccc(Nc3ncc(F)c(-c4cc(F)c5nc(C)n(C(C)C)c5c4)n3)nc2)CC1 + Cc1c(S(C)(=O)=O)c(-c2cc(F)cc(N3CCN(c4ccc(NS(=O)(=O)c5ccc(NC(CCN6CCC(C(=O)OCCCP(=O)(O)O)CC6)CSc6ccccc6)c(S(=O)(=O)C(F)(F)F)c5)cc4)CC3)c2)c(-c2ccc(Cl)cc2)n1C(C)C .
output: 75.8%
